Please provide measured IC50 for the entries that follow.
molecular target: PHD1 (EGLN2) (Homo sapiens (Human), UniProt Q96KS0); test: HIF-PH assay (14CO2 capture), PHD1 enzyme inhibition; type: biochemical; conditions: Table 1; individual measurement; read-out: IC50 (μM) PHD1
Sequence (Q96KS0 whole entry): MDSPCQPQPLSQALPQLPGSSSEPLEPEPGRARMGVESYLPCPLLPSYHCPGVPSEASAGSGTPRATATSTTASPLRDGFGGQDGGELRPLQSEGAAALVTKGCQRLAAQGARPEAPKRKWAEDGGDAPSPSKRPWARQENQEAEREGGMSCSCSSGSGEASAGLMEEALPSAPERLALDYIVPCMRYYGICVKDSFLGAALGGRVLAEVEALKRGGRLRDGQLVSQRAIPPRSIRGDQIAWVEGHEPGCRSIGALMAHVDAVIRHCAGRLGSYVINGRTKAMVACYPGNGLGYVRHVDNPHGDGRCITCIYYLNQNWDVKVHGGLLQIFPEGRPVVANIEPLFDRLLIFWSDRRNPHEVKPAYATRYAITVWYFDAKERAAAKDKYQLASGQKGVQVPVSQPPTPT

[ask] Recall and state the measured IC50 for N#Cc1nc(C(=O)NCC(O)C(=O)O)c(O)c2ccc(Oc3ccccc3)cc12 (stereo not shown) .
[reply] 0.16 µM

[ask] Tell us which IC50 value is on record for `O=C(O)CCCCNC(=O)c1ncc2cc(Oc3c(F)cccc3F)ccc2c1O`
[reply] 23.1 µM

[ask] Hello, please tell me recorded IC50 for this one: `Cn1nc(C(F)(F)F)cc1-c1nc(C(=O)NCC(C)(C)C(=O)O)c(O)c2ccc(Oc3ccccc3)cc12`
[reply] 12.8 µM

[ask] Specify measured IC50 for CCC(C)(CNC(=O)c1nc(C#N)c2cc(Oc3ccccc3)ccc2c1O)C(=O)O (stereo not shown) .
[reply] 1.1 µM

---

biological target: PHD1 (EGLN2) (Homo sapiens (Human)); test: HIF-PH assay (14CO2 capture), PHD1 enzyme inhibition; format: biochemical; details: Table 1; average of multiple independent measurements; read-out: IC50 (μM) PHD1 avg.
Recorded Endpoint: IC50 (µM)
# number only, unit µM dropped from output

[ask] Tell us which IC50 value is on record for CC(C)CC(CC(=O)O)NC(=O)c1nc(C#N)c2cc(Oc3ccccc3)ccc2c1O (stereo not drawn)
[reply] 5.52

[ask] Report IC50, nothing else, for this compound: `N#Cc1nc(C(=O)N[C@H](CCc2ccccc2)CC(=O)O)c(O)c2ccc(Oc3ccccc3)cc12`
[reply] 2.37

[ask] Tell me IC50 reported for `COc1ccccc1Oc1ccc2c(O)c(C(=O)NCC(C)(C)C(=O)O)nc(C#N)c2c1`
[reply] 1.04

---

target: PHD1 (EGLN2) (Homo sapiens (Human), UniProt Q96KS0); experiment: HIF-PH assay (14CO2 capture), PHD1 enzyme inhibition; assay type: biochemical; conditions: Table 1; ratio of the IC50 of the compound for each enzyme
Exercise: for every item that follows, state its recorded PHD2/PHD1.
Keep the answer to the number alone.

[ask] Give recorded PHD2/PHD1. N#Cc1nc(C(=O)NCC(C(=O)O)c2ccccc2F)c(O)c2ccc(Oc3ccccc3)cc12 (centres unmarked)
[reply] 7

[ask] Quote PHD2/PHD1 reported for `N#Cc1nc(C(=O)NC[C@@H](O)CC(=O)O)c(O)c2ccc(Oc3ccccc3)cc12` please.
[reply] 12

[ask] Please look at this molecule and report its PHD2/PHD1: `CC(C)(CNC(=O)c1nc(C#N)c2cc(Oc3ccc(F)cc3)ccc2c1O)C(=O)O`
[reply] 11

[ask] Look up PHD2/PHD1 of `CC(C)(CCC(=O)O)NC(=O)c1nc(C#N)c2cc(Oc3ccccc3)ccc2c1O` and report it.
[reply] 22

[ask] Return the recorded PHD2/PHD1 value; entry: `CC(C)(CNC(=O)c1nc(C#N)c2cc(Oc3ccccc3)ccc2c1O)CC(=O)O`
[reply] 5

[ask] Quote PHD2/PHD1 reported for `CCc1ccccc1Oc1ccc2c(O)c(C(=O)NCC(C)(C)C(=O)O)nc(C#N)c2c1` please.
[reply] 6

[ask] Using known records, supply PHD2/PHD1 for `C[C@H](CC(=O)O)NC(=O)c1nc(C#N)c2cc(Oc3ccccc3)ccc2c1O`
[reply] 14

[ask] Read the entry `N#Cc1nc(C(=O)NCC[C@H](O)C(=O)O)c(O)c2ccc(Oc3ccccc3)cc12` and write its reported PHD2/PHD1.
[reply] 12
